Target: mouse TAAR1 (Mus musculus, UniProt Q923Y8)
Sequence (Q923Y8 whole entry): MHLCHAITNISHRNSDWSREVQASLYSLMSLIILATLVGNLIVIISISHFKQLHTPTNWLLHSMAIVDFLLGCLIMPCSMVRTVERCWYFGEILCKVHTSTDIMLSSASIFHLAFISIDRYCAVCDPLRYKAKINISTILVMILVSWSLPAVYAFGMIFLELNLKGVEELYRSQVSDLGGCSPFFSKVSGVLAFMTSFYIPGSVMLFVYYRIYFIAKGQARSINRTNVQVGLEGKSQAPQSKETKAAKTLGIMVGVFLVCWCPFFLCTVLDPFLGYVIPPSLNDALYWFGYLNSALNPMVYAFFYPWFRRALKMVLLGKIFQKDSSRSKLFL
pKi: −log10 of the molar value.
Rule: condition met for pKi not less than 8, condition not met for anything less.

As a guide, the following entries are already answered.
chemical-string: NC1=N[C@@H](CN(Cc2ccccc2)c2ccc(F)cc2)CO1
qualitative-label: condition not met
--
chemical-string: CN(C[C@@H]1COC(N)=N1)c1ccc(F)cc1
qualitative-label: condition met
--
chemical-string: CCN(C[C@@H]1COC(N)=N1)c1ccc(Cl)cc1
qualitative-label: condition met

Record CN(C[C@H]1COC(N)=N1)c1ccc2ccccc2c1 ; criterion: pKi no lower than 8. Met? condition met

---

Biological target: TAAR1
Test: Calculated Kd of the radioligand used in the TAAR1 binding assay
Settings: species not stated
measurement-name: pKd
Please keep in mind that pKd is minus log10 of the molar concentration; only the number is needed.

Any idea what its pKd is? The compound is c1ccc2c(c1)CCCC2C1=NCCN1 (racemic) 7.22

---

A set of molecules tested on rat TAAR1 (Rattus norvegicus), with measured log10(Ki):
Short version: log10 scale, Ki, nM.

Known results for molecules:
chemical-string: CCN(C[C@@H]1COC(N)=N1)c1ccc(F)c(OC)c1
target-under-test: rat TAAR1 (Rattus norvegicus)
Sequence (Q923Y9 whole entry): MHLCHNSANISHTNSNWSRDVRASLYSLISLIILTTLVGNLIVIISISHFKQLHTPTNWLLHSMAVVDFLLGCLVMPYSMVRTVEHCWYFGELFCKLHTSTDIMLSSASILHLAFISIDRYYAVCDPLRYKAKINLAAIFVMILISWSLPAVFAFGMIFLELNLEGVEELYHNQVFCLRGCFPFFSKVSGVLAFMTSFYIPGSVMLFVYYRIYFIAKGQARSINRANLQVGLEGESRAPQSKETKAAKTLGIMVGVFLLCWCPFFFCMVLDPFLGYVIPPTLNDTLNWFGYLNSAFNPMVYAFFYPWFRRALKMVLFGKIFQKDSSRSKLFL
result-number: 0.20
//
chemical-string: CC(C)N(C[C@@H]1COC(N)=N1)c1ccc(Cl)cc1
target-under-test: rat TAAR1 (Rattus norvegicus)
result-number: 0.43
//
chemical-string: CCN(C[C@H]1COC(N)=N1)c1ccccc1
target-under-test: rat TAAR1 (Rattus norvegicus)
result-number: 0.00
//
chemical-string: CCN(C[C@@H]1COC(N)=N1)c1cc(F)cc(C(F)(F)F)c1
target-under-test: rat TAAR1 (Rattus norvegicus)
result-number: 0.99

Find the measured log10(Ki): item CCN(C[C@H]1COC(N)=N1)c1cccc(Br)c1 , target or system rat TAAR1 (Rattus norvegicus). 0.26

Find the measured log10(Ki): item CCN(C[C@@H]1COC(N)=N1)c1ccccc1 , target or system rat TAAR1 (Rattus norvegicus). 0.28

Find the measured log10(Ki): item CC(C)N(C[C@H]1COC(N)=N1)c1ccc(Cl)c(Cl)c1 , target or system rat TAAR1 (Rattus norvegicus). -0.10

Find the measured log10(Ki): item CCN(C[C@H]1COC(N)=N1)c1cccc(-c2cnco2)c1 , target or system rat TAAR1 (Rattus norvegicus). 1.27

Find the measured log10(Ki): item Cc1ccc(NC[C@H]2COC(N)=N2)c(F)c1 , target or system rat TAAR1 (Rattus norvegicus). 1.26

Find the measured log10(Ki): item CN(C[C@H]1COC(N)=N1)c1ccc(Cl)cc1F , target or system rat TAAR1 (Rattus norvegicus). 0.48
